Origin of values: patent US8163909B2

Listing of entries alongside the reported IC50.
Target: CYP2D6 (Homo sapiens, UniProt P10635)
Sequence (P10635 whole entry): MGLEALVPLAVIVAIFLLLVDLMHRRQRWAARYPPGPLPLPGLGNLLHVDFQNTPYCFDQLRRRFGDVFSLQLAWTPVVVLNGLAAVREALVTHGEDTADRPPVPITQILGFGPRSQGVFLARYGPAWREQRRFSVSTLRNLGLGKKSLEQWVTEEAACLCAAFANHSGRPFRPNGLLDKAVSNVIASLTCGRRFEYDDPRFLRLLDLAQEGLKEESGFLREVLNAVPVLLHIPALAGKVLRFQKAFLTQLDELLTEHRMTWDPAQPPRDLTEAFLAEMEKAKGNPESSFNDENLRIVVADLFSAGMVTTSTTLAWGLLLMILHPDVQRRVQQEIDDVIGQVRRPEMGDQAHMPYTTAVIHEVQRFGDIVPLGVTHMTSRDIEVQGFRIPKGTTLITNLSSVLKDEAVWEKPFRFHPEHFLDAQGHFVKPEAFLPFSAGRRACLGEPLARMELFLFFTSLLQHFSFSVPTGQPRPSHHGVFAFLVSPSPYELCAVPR
Experiment: CYP2D6 inhibition assay (bufuralol, pooled human liver microsomes)
Settings: 2D6 IC50, CYP2D6 inhibition
Form entry: value (µM) — number only.

compound: CO[C@H](C)C(=O)N[C@@H](Cc1cccc(F)c1)[C@H](O)CN[C@H]1CC2(CCC2)Oc2c(-c3ccncc3)cc(CC(C)C)cc21 [compound 609]
IC50 / µM: 2
--
compound: COCC(=O)N[C@@H](Cc1cc(F)cc(F)c1)[C@H](O)CN[C@H]1CC2(CCC2)Oc2c1cc(CC(C)(C)C)nc2-c1nccn1C [Example 596]
IC50 / µM: 2.9
--
compound: COCC(=O)N[C@@H](Cc1cccc(F)c1)[C@H](O)CN[C@H]1CC2(CCC2)Oc2c(-c3ccnc(OC)c3)cc(CC(C)(C)C)cc21 [compound 654]
IC50 / µM: 9.9
--
compound: COCC(=O)N[C@@H](Cc1cc(F)cc(F)c1)[C@H](O)CN[C@H]1CC2(CCC2)Oc2c(-c3nccn3C)cc(CC(C)C)cc21 [compound 630]
IC50 / µM: 4
--
compound: COCC(=O)N[C@@H](Cc1ccccc1)[C@H](O)CN[C@H]1CC2(CCC2)Oc2ccc(C[C@H](C)F)cc21 [compound 611]
IC50 / µM: 1.2

# context switch: different compound, same IC50
[Q] Field request: IC50 | item: COCC(=O)N[C@@H](Cc1cc(F)cc(F)c1)[C@H](O)CN[C@H]1CC2(CCC2)Oc2c(-c3cncn3C)cc(CC(C)C)cc21 [compound 631]
[A] 3.9
